- TARGET OR TEST SYSTEM: UniProt:C7FF04
- EXPERIMENT: Mushroom tyrosinase inhibitory assay, L-tyrosine oxidation (monophenolase activity)
- Assay type: biochemical
- Set-up: purchased Sigma-Aldrich Co. (St. Louis, MO, USA)
REPORTED METRIC: pIC50
Answers are plain numbers, as −log10 of the molar value.

Reported pIC50 for CC(C)=CCc1c(-c2ccc(O)cc2O)oc2c(C3C=C(C)CC(c4ccc(O)cc4O)C3C(=O)c3ccc(O)cc3O)c(O)cc(O)c2c1=O (stereo not shown) was 4.17

---

Provide the recorded IC50 for the entries that follow.
- TARGET OR TEST SYSTEM: mushroom tyrosinase (Agaricus bisporus)
- Sequence (C7FF04 2-392): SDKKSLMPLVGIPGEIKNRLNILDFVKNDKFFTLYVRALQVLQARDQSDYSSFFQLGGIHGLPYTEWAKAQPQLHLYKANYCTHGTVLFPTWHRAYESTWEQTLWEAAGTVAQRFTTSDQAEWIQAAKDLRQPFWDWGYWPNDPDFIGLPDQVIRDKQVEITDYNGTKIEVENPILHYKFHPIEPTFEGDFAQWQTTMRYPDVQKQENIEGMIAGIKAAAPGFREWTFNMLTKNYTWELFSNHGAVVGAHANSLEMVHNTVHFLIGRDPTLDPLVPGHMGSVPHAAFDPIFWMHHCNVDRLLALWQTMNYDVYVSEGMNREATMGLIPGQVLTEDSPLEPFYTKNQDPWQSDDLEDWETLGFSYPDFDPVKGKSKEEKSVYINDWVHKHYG
- EXPERIMENT: Mushroom tyrosinase inhibitory assay, L-tyrosine oxidation (monophenolase activity)
- Assay type: biochemical
- Design: purchased Sigma-Aldrich Co. (St. Louis, MO, USA)
- CONDITIONS USED: L-tyrosine substrate (monophenolase), 25 °C, pH 6.5; mean ± SEM of triplicate; read-out: IC50 (μM) Value L-Tyrosine

Consider the following illustrative entries.
MOLECULE: CC1=CCCCC1 [1-Methyl-1-cyclohexene, reference compound]
TARGET OR TEST SYSTEM: mushroom tyrosinase (Agaricus bisporus)
REPORTED METRIC: IC50
MEASURED RESULT: > 1000 µM

MOLECULE: CC1=C[C@H]2c3c(O)cc(-c4cc5ccc(O)cc5o4)cc3O[C@@]3(c4ccc(O)cc4O)Oc4cc(O)ccc4[C@H](C1)[C@@H]23 [Mulberrofuran G]
TARGET OR TEST SYSTEM: mushroom tyrosinase (Agaricus bisporus)
REPORTED METRIC: IC50
MEASURED RESULT: 6.35 µM

Now let's try a different one.
Entry under test: Cc1cc2c3c(c1)-c1c(O)cc(-c4cc5ccc(O)cc5o4)cc1OC3(c1ccc(O)cc1O)Oc1cc(O)ccc1-2 (stereo not drawn) [Albanol B] . Its IC50 was > 350 µM
